The values you see were collected from patent US7476650B2.

Target under test: trypsin-like activity of purified bovine erythrocyte 20S proteasome (Bos taurus)
Construct: from tissue; host or cells: bovine erythrocytes (red blood cells)
Assay summary: Enzyme kinetic assay, trypsin-like activity (Boc-LRR-AMC)
Type: biochemical
Condition label: Examples 9 and 10
kobs/[I] for tryptic-like activity using Boc-LRR-AMC of 5 M⁻¹ s⁻¹ or higher: criterion met. Under 5 M⁻¹ s⁻¹: criterion not met.

Asked: Reported kobs/[I] for tryptic-like activity using Boc-LRR-AMC at or above 5 M⁻¹ s⁻¹? CC(=O)N[C@@H](CC(C)C)C(=O)N[C@@H](C)C(=O)N[C@@H](CC(C)C)C(=O)N[C@@H](CC(C)C)C(=O)[C@@]1(C)CO1 [Ac-LALL-epoxide]
Given back: criterion not met

Asked: CC(=O)N[C@@H](CC(C)C)C(=O)N[C@@H](CC(C)C)C(=O)N[C@@H](C)C(=O)N[C@@H](CC(C)C)C(=O)[C@@]1(C)CO1 [Ac-LLAL-epoxide] , same question.
Given back: criterion not met

Asked: Consider next the compound CC(C)C[C@H](NC(=O)[C@@H](N)CCc1ccccc1)C(=O)N[C@@H](Cc1ccccc1)C(=O)N[C@@H](CC(C)C)C(=O)[C@@]1(C)CO1 [compound 18] in the same way.
Given back: criterion met

Asked: Queued: CC(=O)N[C@@H](CCc1ccccc1)C(=O)N[C@@H](CC(C)C)C(=O)N[C@@H](CC(C)C)C(=O)N[C@@H](CC(C)C)C(=O)[C@@]1(C)CO1 [P4 methylphenyl]
Given back: criterion met

Asked: Further, for CC(=O)N[C@@H](C)C(=O)N[C@@H](CC(C)C)C(=O)N[C@@H](CC(C)C)C(=O)N[C@@H](CC(C)C)C(=O)[C@@]1(C)CO1 [Ac-ALLL-epoxide] ?
Given back: criterion not met

Asked: Repeat with CC(=O)N[C@@H](Cc1ccccc1)C(=O)N[C@@H](CC(C)C)C(=O)N[C@@H](CC(C)C)C(=O)N[C@@H](CC(C)C)C(=O)[C@@]1(C)CO1 [P4 phenyl]
Given back: criterion met
